Test system: HL-1
Test description: cardiomyocyte survival under oxidative or metabolic stress – cell-based, panel, H9c2 and HL-1, H2O2, 2-deoxyglucose, ATP luminescence, SAR follow-up (AID 651642)
Experimental parameters: H9c2/HL-1 cardiomyocyte 2-deoxyglucose damage, mean of runs, with 2-deoxyglucose, mean IC50 across panel
Readout: IC50 (nM)
Answer format: numeric, nM implied, no suffix.

COC(=O)CNC(=O)c1cccc(NC(=O)c2cc(-c3cc(OC)c(OC)c(OC)c3)nc3ccccc23)c1: 1960

Query block: Given COc1ccc2c(c1OC)C(=O)N1c3ccccc3C(=O)N(Cc3cccc(Cl)c3Cl)C21 (stereo not drawn) , state its recorded IC50.
Result block: 1480

Query block: Same thing, different compound: CCOC(=O)c1cccc(NC(=O)CNC(=O)c2cc(-c3cc(OC)c(OC)c(OC)c3)nc3ccc(C)cc23)c1
Result block: 2200

Query block: Next: COc1cc(-c2cc(C(=O)NCC(=O)Nc3cccc(C(C)=O)c3)c3ccccc3n2)cc(OC)c1OC
Result block: 6180

Query block: Also CCOC(=O)c1cccc(NC(=O)CNC(=O)c2cc(-c3cc(OC)c(OC)c(OC)c3)nc3ccc(Br)cc23)c1 , if possible.
Result block: 1870

Query block: Proceed to COc1cc(-c2cc(C(=O)NCC(=O)Nc3cccc(C(C)=O)c3)c3cccc(Cl)c3n2)cc(OC)c1OC
Result block: 6580

Query block: Query COc1ccccc1CN1C(=O)c2ccccc2N2C(=O)c3c(ccc(OC)c3OC)C12 (stereo not drawn) next
Result block: 5370

----------
Measured IC50 accompanies every entry in the list below.
Tested on: HL-1
Test description: cardiomyocyte survival under oxidative or metabolic stress – cell-based, panel, H9c2 and HL-1, H2O2, 2-deoxyglucose, ATP luminescence, SAR follow-up (AID 651642)
Experimental parameters: H9c2/HL-1 cardiomyocyte 2-deoxyglucose damage, run 1, with 2-deoxyglucose
Provide the reading as a plain figure in µM.

Take a look at these entries with their results.
CCOC(=O)c1cccc(NC(=O)c2cc(-c3cc(OC)c(OC)c(OC)c3)nc3ccccc23)c1: 3.23
COc1ccc2c(c1OC)C(=O)N1c3ccccc3C(=O)N(Cc3cccc(Br)c3)C21 (centres undefined): 5.07
COc1ccc2c(c1OC)C(=O)N1c3ccccc3C(=O)N(Cc3ccccc3C)C21 (centres undefined): 1.65
CCOC(=O)c1cccc(NC(=O)c2cc(-c3cc(OC)c(OC)c(OC)c3)nc3ccc(OC)cc23)c1: 2.77
COc1cc(-c2cc(C(=O)Nc3cccc(C(=O)N(C)C)c3)c3ccccc3n2)cc(OC)c1OC: 6.9

Query block: Return reported IC50; argument: COc1ccc2nc(-c3cc(OC)c(OC)c(OC)c3)cc(C(=O)Nc3cccc(C(C)=O)c3)c2c1
Result block: 6.04

----------
System: H9c2
Test description: cardiomyocyte survival under oxidative or metabolic stress – cell-based, panel, H9c2 and HL-1, H2O2, 2-deoxyglucose, ATP luminescence, SAR follow-up (AID 651642)
Experimental parameters: H9c2/HL-1 cardiomyocyte 2-deoxyglucose damage, mean of runs, with 2-deoxyglucose, mean IC50 across panel
Reported IC50 by item:

Query block: Fill in the recorded IC50 for this molecule, with H9c2 as test system: COc1cc(-c2cc(C(=O)Nc3cccc(C(=O)NC4CC4)c3)c3ccccc3n2)cc(OC)c1OC
Result block: 19.6 µM

Query block: Do the same for COc1ccc2nc(-c3cc(OC)c(OC)c(OC)c3)cc(C(=O)NCC(=O)Nc3ccc(C(C)=O)cc3)c2c1 please
Result block: 5.3 µM

Query block: Next up: CCOC(=O)c1cccc(NC(=O)c2cc(-c3cc(OC)c(OC)c(OC)c3)nc3ccccc23)c1
Result block: > 79 µM

Query block: Next: COc1cc(-c2cc(C(=O)Nc3cccc(C(C)=O)c3)c3cccc(Cl)c3n2)cc(OC)c1OC
Result block: > 79 µM

Query block: And what about the molecule CCNC(=O)c1cccc(NC(=O)c2cc(-c3cc(OC)c(OC)c(OC)c3)nc3ccccc23)c1 ?
Result block: 22.2 µM

Query block: Proceed to CCOC(=O)c1ccc(NC(=O)c2cc(-c3cc(OC)c(OC)c(OC)c3)nc3ccccc23)cc1
Result block: > 79 µM

Query block: Check CCOC(=O)c1cccc(NC(=O)CNC(=O)c2cc(-c3cc(OC)c(OC)c(OC)c3)nc3c(Cl)cccc23)c1 too.
Result block: > 79 µM

Query block: Could you do the same for CCOC(=O)c1cccc(NC(=O)c2cc(-c3cc(OC)c(OC)c(OC)c3)nc3c(Cl)cccc23)c1 , please?
Result block: > 79 µM

----------
This section presents molecules with their documented IC50 values.
Tested on: HL-1
Test description: cardiomyocyte survival under oxidative or metabolic stress – cell-based, panel, H9c2 and HL-1, H2O2, 2-deoxyglucose, ATP luminescence, SAR follow-up (AID 651642)
Experimental parameters: H9c2/HL-1 cardiomyocyte 2-deoxyglucose damage, run 1, with 2-deoxyglucose

Query block: So what's the measured IC50 for this one? CCOC(=O)c1cccc(NC(=O)c2cc(-c3cc(OC)c(OC)c(OC)c3)nc3cc(Cl)ccc23)c1
Result block: > 79 µM

Query block: And then COc1cc(-c2cc(C(=O)Nc3cccc(C(C)=O)c3)c3cc(F)ccc3n2)cc(OC)c1OC , what is it?
Result block: > 79 µM

Query block: And COc1cc(-c2cc(C(=O)NCC(=O)Nc3ccc(C(C)=O)cc3)c3ccccc3n2)cc(OC)c1OC ?
Result block: > 79 µM

----------
Measured IC50 by item
System: HL-1
Test description: cardiomyocyte survival under oxidative or metabolic stress – cell-based, panel, H9c2 and HL-1, H2O2, 2-deoxyglucose, ATP luminescence, SAR follow-up (AID 651642)
Experimental parameters: H9c2/HL-1 cardiomyocyte 2-deoxyglucose damage, run 3, with 2-deoxyglucose
Respond numerically; units are µM and should not be typed.

Query block: Form field - read-out: IC50; system: HL-1; submitted item: COc1cc(-c2cc(C(=O)Nc3cccc(C(N)=O)c3)c3ccccc3n2)cc(OC)c1OC
Result block: 19.2

Query block: Another compound to check: COc1cc(-c2cc(C(=O)NCC(=O)Nc3ccc(C(C)=O)cc3)c3ccccc3n2)cc(OC)c1OC
Result block: 6.28

----------
Test system: HL-1
Test description: cardiomyocyte survival under oxidative or metabolic stress – cell-based, panel, H9c2 and HL-1, H2O2, 2-deoxyglucose, ATP luminescence, SAR follow-up (AID 651642)
Experimental parameters: H9c2/HL-1 cardiomyocyte 2-deoxyglucose damage, mean of runs, with 2-deoxyglucose, mean IC50 across panel
pIC50: −log10 of the molar value.
Readout: pIC50

COc1cc(-c2cc(C(=O)NCC(=O)O)c3ccccc3n2)cc(OC)c1OC: < 4.10
COC(=O)CNC(=O)c1cc(-c2cc(OC)c(OC)c(OC)c2)nc2ccccc12: < 4.10

Query block: For the molecule shown here, COc1ccc2c(c1OC)C(=O)N1c3ccccc3C(=O)N(Cc3ccc(C)cc3C)C21 (stereo unspecified) , give the reported pIC50.
Result block: < 4.10

Query block: Follow-up entry: COc1cc(-c2cc(C(=O)Nc3cccc(C(=O)N(C)C)c3)c3ccccc3n2)cc(OC)c1OC
Result block: 4.78

Query block: Next molecule up: CCOC(=O)c1cccc(NC(=O)c2cc(-c3cc(OC)c(OC)c(OC)c3)nc3ccc(Br)cc23)c1
Result block: < 4.10

Query block: Param item: COc1ccc2c(c1OC)C(=O)N1c3ccccc3C(=O)N(Cc3ccncc3)C21 (stereo unspecified)
Result block: < 4.10

Query block: # repeat for COc1ccc2c(c1OC)C(=O)N1c3ccccc3C(=O)N(Cc3ccccn3)C21 (stereo unspecified)
Result block: < 4.10

Query block: Try the molecule COc1ccc2c(c1OC)C(=O)N1c3ccccc3C(=O)N(Cc3ccccc3C)C21 (stereo unspecified)
Result block: 5.52

Query block: Same for COc1ccc(NC(=O)CNC(=O)c2cc(-c3cc(OC)c(OC)c(OC)c3)nc3ccccc23)cc1
Result block: 5.18

Query block: Moving on to COc1cc(-c2cc(C(=O)Nc3cccc(C(C)=O)c3)c3cc(F)ccc3n2)cc(OC)c1OC
Result block: < 4.10

----------
# pIC50 per entry
Tested on: H9c2
Test description: cardiomyocyte survival under oxidative or metabolic stress – cell-based, panel, H9c2 and HL-1, H2O2, 2-deoxyglucose, ATP luminescence, SAR follow-up (AID 651642)
Experimental parameters: H9c2/HL-1 cardiomyocyte H2O2 oxidative damage, run 3, with H2O2
pIC50: −log10 of the molar value.

Here's what some known entries look like.
COc1cc(-c2cc(C(=O)Nc3cccc(C(=O)NCc4ccccc4)c3)c3ccccc3n2)cc(OC)c1OC: 6.17
COc1ccc2c(c1OC)C(=O)N1c3ccccc3C(=O)N(Cc3cccc(Br)c3)C21 (stereo unspecified): < 4.10
COc1cc(-c2cc(C(=O)Nc3cccc(C#N)c3)c3ccccc3n2)cc(OC)c1OC: < 4.10

Query block: Record request: pIC50 value, item COc1cc(-c2cc(C(=O)Nc3cccc(C(C)=O)c3)c3cc(F)ccc3n2)cc(OC)c1OC
Result block: 5.34

Query block: Repeat for the following compound: COc1cc(-c2cc(C(=O)Nc3cccc(C(C)=O)c3)c3cccc(Cl)c3n2)cc(OC)c1OC
Result block: < 4.10

Query block: Entry COc1ccc2c(c1OC)C(=O)N1c3ccccc3C(=O)N(Cc3cccc(C)c3)C21 (stereo unspecified) please
Result block: < 4.10

Query block: // repeat for CCOC(=O)c1ccc(NC(=O)c2cc(-c3cc(OC)c(OC)c(OC)c3)nc3ccccc23)cc1 and report
Result block: < 4.10
